- test.name: Permeability of the compound at […] after 3 hrs by artificial membrane permeability assay
- Assay type: ADME
- test.settings: PAMPA; read-out: permeability
Property: Papp at 3 h; scope: individual compounds
Lab book: enter the figure in ×10⁻⁶ cm/s, no units written.

Recorded Papp at 3 h of N#CCCC(=O)NC1=NN(c2ccc(Cl)c(Cl)c2)CC1 , please.
35.5

Query (compound): N#CCC(=O)NC1=NN(c2ccc(Cl)c(Cl)c2)CC1 ; field requested: Papp at 3 h
32

// returns reported Papp at 3 h for input N#CCC(=O)Nc1nc(-c2ccc(Cl)c(Cl)c2)cs1
14.2

May I ask what Papp at 3 h has been recorded for CC(=O)Nc1nc(-c2cccc(O)c2)cs1 ?
27

What does the data say about its Papp at 3 h? Entry: O=C(NC1=NN(c2ccc(Cl)c(Cl)c2)CC1CCO)c1cccnc1 (racemic)
19

Recorded Papp at 3 h for O=C(NC1=NN(c2ccc(Cl)c(Cl)c2)CC1CCO)c1ccncc1 (racemic) , please?
33.5

// query Papp at 3 h value for entry N#CCC(=O)Nc1cc(-c2ccc(Cl)c(Cl)c2)cs1
19

Sample CC(=O)NC1=NN(c2ccc(Cl)c(Cl)c2)CC1 — what was its Papp at 3 h?
36

I would be grateful if you could share the reported Papp at 3 h for O=C(NC1=NN(c2ccc(Cl)c(Cl)c2)CC1)c1ccncc1F .
28

Consider the compound CC(=O)Nc1nc(-c2ccc(Cl)c(Cl)c2)cs1 and give its measured Papp at 3 h.
19.6

----------
Each entry below carries its reported solubility kinetic at 1 h.
- test.name: Kinetic solubility of the compound at pH 7.4 after 1 hr by CLND-based assay
- Assay type: physicochemical
- test.settings: buffer, read-out: Kinetic_solubility
Just the number in µM, nothing appended.

Some molecules with known solubility kinetic at 1 h results, for comparison:
>  <molecule>
NC1=NN(c2ccc(Cl)c(Cl)c2)CC1

>  <measured.number>
69

$$$$
>  <molecule>
N#CCC(=O)Nc1csc(-c2ccc(Cl)c(Cl)c2)n1

>  <measured.number>
2

$$$$
>  <molecule>
N#CCC(=O)Nc1nsc(-c2ccc(Cl)c(Cl)c2)n1

>  <measured.number>
69

$$$$
>  <molecule>
N#CCCC(=O)NC1=NN(c2ccc(Cl)c(Cl)c2)CC1

>  <measured.number>
39

$$$$
>  <molecule>
O=C(NC1=NN(c2ccc(Cl)c(Cl)c2)CC1)c1ccncc1F

>  <measured.number>
36

$$$$

// moving on: another record for solubility kinetic at 1 h
Field request: solubility kinetic at 1 h | item: CS(=O)(=O)Nc1nc(-c2ccc(Cl)c(Cl)c2)cs1
429

----------
- assay.target: Tyrosine-protein kinase ABL1 (Homo sapiens, UniProt P00519, D382N)
- Sequence (P00519 as listed by the source D382N): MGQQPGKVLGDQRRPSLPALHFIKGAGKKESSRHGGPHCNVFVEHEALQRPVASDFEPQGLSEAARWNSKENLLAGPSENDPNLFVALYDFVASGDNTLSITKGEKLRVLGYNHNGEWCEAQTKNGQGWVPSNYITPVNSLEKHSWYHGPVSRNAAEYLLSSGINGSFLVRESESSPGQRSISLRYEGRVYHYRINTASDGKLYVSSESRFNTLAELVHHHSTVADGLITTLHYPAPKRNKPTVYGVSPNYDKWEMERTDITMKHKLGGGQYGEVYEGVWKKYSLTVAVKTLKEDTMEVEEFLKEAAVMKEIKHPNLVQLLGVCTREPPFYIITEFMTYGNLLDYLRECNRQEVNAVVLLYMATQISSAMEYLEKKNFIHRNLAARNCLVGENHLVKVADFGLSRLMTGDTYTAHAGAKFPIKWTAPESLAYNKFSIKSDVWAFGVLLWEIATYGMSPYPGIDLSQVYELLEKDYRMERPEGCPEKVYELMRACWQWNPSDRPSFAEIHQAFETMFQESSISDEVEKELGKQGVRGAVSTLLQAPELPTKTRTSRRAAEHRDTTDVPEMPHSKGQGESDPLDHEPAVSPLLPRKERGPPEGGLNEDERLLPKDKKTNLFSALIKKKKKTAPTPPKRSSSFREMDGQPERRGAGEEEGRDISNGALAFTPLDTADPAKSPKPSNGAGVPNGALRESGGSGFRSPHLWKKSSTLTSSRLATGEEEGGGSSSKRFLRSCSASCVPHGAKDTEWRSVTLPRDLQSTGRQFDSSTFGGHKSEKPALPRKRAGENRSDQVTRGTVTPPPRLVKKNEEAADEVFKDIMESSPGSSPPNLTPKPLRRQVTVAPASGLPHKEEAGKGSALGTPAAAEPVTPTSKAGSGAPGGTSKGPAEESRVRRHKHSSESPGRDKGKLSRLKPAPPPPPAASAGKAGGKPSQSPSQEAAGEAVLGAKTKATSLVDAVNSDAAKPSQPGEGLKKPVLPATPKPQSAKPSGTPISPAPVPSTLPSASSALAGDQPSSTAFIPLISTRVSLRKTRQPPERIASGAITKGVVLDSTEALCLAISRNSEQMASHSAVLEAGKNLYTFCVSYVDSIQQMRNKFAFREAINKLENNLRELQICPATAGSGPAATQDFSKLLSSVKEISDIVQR
- test.name: Displacement of Myr-GQQPGKVLGDQRRPSL(K-TAMRA)G-amide from N-terminal-truncated human c-ABL D382N mutant (46 to 534 residues) after 30 mins by fluorescence polarization binding assay
One threshold, 400 nM, splits the recorded IC50 values: lower ones are Criterion met, equal or higher ones are Criterion not met.

>  <chemical.smiles>
N#CCC(=O)Nc1csc(-c2ccc(Cl)c(Cl)c2)n1

>  <answer.label>
Criterion met

$$$$
>  <chemical.smiles>
O=C(NC1=NN(c2ccc(Cl)c(Cl)c2)CC1)c1ccncn1

>  <answer.label>
Criterion not met

$$$$
>  <chemical.smiles>
N#CCCC(=O)NC1=NN(c2ccc(Cl)c(Cl)c2)CC1

>  <answer.label>
Criterion met

$$$$
>  <chemical.smiles>
O=C(NC1=NN(c2ccc(Cl)c(Cl)c2)CC1)c1cccnc1

>  <answer.label>
Criterion met

$$$$
>  <chemical.smiles>
O=C(Nc1nc(-c2ccc(Cl)c(Cl)c2)cs1)c1cccnc1

>  <answer.label>
Criterion met

$$$$

Does the reported IC50 of the following molecule sit strictly below 400 nM? CC(=O)Nc1nc(-c2cccc(Cl)c2)cs1
Criterion not met

API: query returns whether the molecule falls strictly under 400 nM in IC50. Query: CC(=O)Nc1nc(-c2ccc(Cl)c(F)c2)cs1
Criterion not met

Confirm or reject: IC50 of CC(=O)NC1=NN(c2ccc(Cl)c(Cl)c2)[C@H](C)C1 lies strictly below 400 nM
Criterion not met

Determine if N#CCC(=O)Nc1csc(-c2ccc(Cl)c(Cl)c2)c1 shows IC50 strictly lower than 400 nM.
Criterion not met
